Test system: HOP-92 NSCLC
Experiment: NCI-60 one-dose screen, 48 h (100 = growth as untreated, 0 = no growth, -100 = all killed)
Settings: 10 µM unless noted
The panel holds about 83,000 compounds, 20% with a hit somewhere; the sample as a whole holds those more often. The source made the active and inactive calls. How the source made its calls: active means growth percent below 10; inactive means the rest.
The entries below come with measured growth values attached.
Recorded Endpoint: growth

| Smiles Repr | Result |
| --- | --- |
| C[C@]12CC[C@@H]3c4ccc(O)c([N+](=O)[O-])c4CC[C@H]3[C@@H]1CCC2=O | 86.6% (inactive) |
| CC1(C)c2[nH]c3ccccc3c2C[C@]2(C)[C@H]3CC=C4[C@@H]5C[C@@](C)(C(N)=O)CC[C@]5(C)CC[C@@]4(C)[C@]3(C)CC[C@@H]12 | 80.6% (inactive) |
| COc1cc(/C=C\c2cc(/C=C\c3ccc(O)c(OC)c3)n(C(=O)COc3ccc(Cl)cc3Cl)n2)ccc1O | 12.5% (inactive) |
| COC(=O)[C@H]1CCCN1C[C@@H](O)CN1C(=O)/C(=C\c2cc(OC)c(OC)c(OC)c2)c2ccccc21 | 105% (inactive) |
| Cc1ccc(Sc2nnc(/N=C3\C(=O)Nc4ccccc43)s2)cc1 | 96.4% (inactive) |
| Cc1nn(-c2ccccc2)c(Oc2ccccn2)c1-c1nc2ccccc2s1 | 80.9% (inactive) |
| CCOC(=O)c1c2c(n3ccc(C)cc13)C(=O)c1ccccc1C2=O | 87.8% (inactive) |
| O=S(=O)(NCCNc1nccc(-c2c(-c3cccc(F)c3)nc3occn23)n1)c1ccc(Br)cc1 | 74.7% (inactive) |
| Clc1ccc(Sc2cnc(-c3ccccc3)o2)cc1 | 86.1% (inactive) |

###

System: EKVX NSCLC
Assay: NCI-60 one-dose screen, 48 h (100 = growth as untreated, 0 = no growth, -100 = all killed)
Settings: 10 µM unless noted
This is part of a sample that, as a whole, favours compounds with a hit. Of some 83,000 tested, about 20% had one in any assay.

| Compound | growth / % |
| --- | --- |
| Clc1ccc(CNc2c3ccccc3nc3ccccc23)cc1 | 62.6 |
| C[C@H](NC(=O)[C@@H](C)N)[C@H](Oc1ccc2c(cnn2-c2ccc(F)cc2)c1)c1ccc2c(c1)OCCO2 | 43.5 |
| CCCCCCC1(C)NCCO1 (centres undefined) | 112 |
| CCN1C(=O)N(CC)C2C1NN=c1s/c(=C\c3ccc(Cl)cc3Cl)c(=O)n12 (centres undefined) | 50.1 |
| CCN1C(=O)N(CC)C2C1NN=c1s/c(=C\c3cccc([N+](=O)[O-])c3)c(=O)n12 (centres undefined) | 50.5 |
| COc1cc(CNS(=O)(=O)c2ccc(C)cc2)ccc1OCc1cn(-c2ccc(Br)cc2)nn1 | 93.1 |
| COc1cc(-c2csc(NC(=O)c3cc(-n4cnc(C)c4)cc(C(F)(F)F)c3)n2)cc(OC)c1OC | 69.1 |
| O=C(/C=C/c1ccc(Cl)cc1)c1cccc(Nc2nc(Nc3ccccc3)nc(Nc3ccccc3)n2)c1 | 106 |
| CN1C(=O)/C(=C/c2ccc(C(=O)Nc3ncc(Cc4ccc(Cl)cc4)s3)cc2)SC1=S | 52.6 |

###

Tested on: NCI-H522 lung
Assay: NCI-60 one-dose screen, 48 h
Conditions: 10 µM unless noted
Compounds without any hit were thinned out: in the full panel of roughly 83,000, 20% have a hit. Calls of active or inactive are those of the source. How the source made its calls: active means growth percent below 10; inactive means the rest.
Outcomes: active, inactive

| Smiles Repr | Target Of Assay | Discrete Label |
| --- | --- | --- |
| CSc1nc2sc3c(c2c(=O)n1-c1ccc([N+](=O)[O-])cc1)CCCCC3 | NCI-H522 lung | inactive |
| O=[N+]([O-])c1ccc(N/N=C(/C(=N/Nc2ccc([N+](=O)[O-])cc2)c2ccccc2)c2ccccc2)cc1 | NCI-H522 lung | inactive |
| Cc1ccc(Sc2oc(-c3ccc(C)cc3)nc2[P+](c2ccccc2)(c2ccccc2)c2ccccc2)cc1 | NCI-H522 lung | active |

Entry source: PubChem BioAssay (NCI)
